TARGET OF ASSAY: Tyrosine-protein phosphatase non-receptor type 1 (Homo sapiens)
Sequence (P18031 whole entry): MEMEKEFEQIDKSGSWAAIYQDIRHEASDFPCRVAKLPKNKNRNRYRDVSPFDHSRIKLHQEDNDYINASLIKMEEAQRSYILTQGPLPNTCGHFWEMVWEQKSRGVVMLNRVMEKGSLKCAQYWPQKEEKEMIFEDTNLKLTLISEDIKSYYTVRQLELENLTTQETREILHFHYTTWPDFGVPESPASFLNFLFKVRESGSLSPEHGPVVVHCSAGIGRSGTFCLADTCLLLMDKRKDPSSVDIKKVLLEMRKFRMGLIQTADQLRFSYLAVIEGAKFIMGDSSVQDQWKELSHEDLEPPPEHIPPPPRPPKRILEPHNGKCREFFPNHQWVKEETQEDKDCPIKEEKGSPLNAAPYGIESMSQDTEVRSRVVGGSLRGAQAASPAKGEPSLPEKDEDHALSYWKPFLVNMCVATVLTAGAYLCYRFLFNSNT
MEASUREMENT PROTOCOL: Inhibition of Protein-tyrosine phosphatase 1B (PTP1B)
RECORDED ENDPOINT: pKi
A value of pKi is the negative decimal logarithm of a concentration given in moles per litre.

# example entries with known answers
COMPOUND	pKi
COC(=O)c1c(O)cccc1OCCCCNC(=O)C(Cc1ccc(OC(C(N)=O)C(=O)O)cc1)NC(=O)OC(C)(C)C (stereo not given)	4.86
COC(=O)c1c(O)cccc1OCCCCNC(=O)[C@H](Cc1ccc(OC(C)C(=O)O)c(C(=O)O)c1)NC(=O)OC(C)(C)C (stereo not given in full)	4.31
COC(=O)c1c(O)cccc1OCCCCNC(=O)[C@H](Cc1ccc(OCC(=O)O)cc1)NC(=O)OC(C)(C)C	3.66
COC(=O)c1c(O)cccc1OCCCCNC(=O)[C@H](Cc1ccc(OCC(=O)O)c(C(=O)O)c1)NC(=O)OC(C)(C)C	5.68

Next compound, please.
pKi reported for this compound COC(=O)c1c(O)cccc1OCCCCNC(=O)[C@H](Cc1ccc(N(CC(C(=O)O)c2ccccc2)C(=O)C(=O)O)cc1)NC(=O)OC(C)(C)C (stereo not given in full) : 4.82

* * *

TARGET OF ASSAY: UniProt:P17706
Sequence (P17706 whole entry, looked up): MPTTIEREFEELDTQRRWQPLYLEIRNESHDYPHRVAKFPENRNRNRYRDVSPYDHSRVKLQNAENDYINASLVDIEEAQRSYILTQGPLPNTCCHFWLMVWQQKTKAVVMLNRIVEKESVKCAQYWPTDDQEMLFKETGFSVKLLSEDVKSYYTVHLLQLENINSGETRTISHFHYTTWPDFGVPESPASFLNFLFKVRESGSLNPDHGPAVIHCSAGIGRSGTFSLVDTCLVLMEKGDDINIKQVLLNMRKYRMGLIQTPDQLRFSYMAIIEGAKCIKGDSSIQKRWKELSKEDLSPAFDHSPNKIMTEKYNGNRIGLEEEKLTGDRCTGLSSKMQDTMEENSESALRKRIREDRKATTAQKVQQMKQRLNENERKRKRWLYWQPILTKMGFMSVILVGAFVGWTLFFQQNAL
RECORDED ENDPOINT: Ki (µM)
Provide only the numeric value, understood in µM.

# example entries with known answers
COMPOUND	TARGET OF ASSAY	Ki, µM
COC(=O)c1c(O)cccc1OCCCCNC(=O)[C@H](Cc1ccc(OCC(=O)O)c(C(=O)O)c1)NC(C)=O	UniProt:P17706	129
CCC(CN(C(=O)C(=O)O)c1ccc(C[C@H](NC(=O)OC(C)(C)C)C(=O)NCCCCOc2cccc(O)c2C(=O)OC)cc1)C(=O)O (some centres not stated)	UniProt:P17706	9
COC(=O)c1c(O)cccc1OCCCCNC(=O)[C@H](Cc1ccc(OC(C)C(=O)O)c(C(=O)O)c1)NC(=O)[C@H](Cc1ccccc1)NC(=O)OC(C)(C)C (some centres not stated)	UniProt:P17706	1.97
COC(=O)c1c(O)cccc1OCCCCNC(=O)[C@H](Cc1ccc(N(CC(C(=O)O)c2ccccc2)C(=O)C(=O)O)cc1)NC(=O)OC(C)(C)C (some centres not stated)	UniProt:P17706	97.8

Next compound, please.
Tested system UniProt:P17706; Ki recorded for COC(=O)c1c(O)cccc1OCCCCNC(=O)[C@H](Cc1ccc(OC(C)C(=O)O)c(C(=O)O)c1)NC(=O)OC(C)(C)C (some centres not stated) was 273
